Counter-ions that a name gives are not always drawn.
Listed below: melting point values for each entry.

melting point reading for CC(=O)O[C@H]1CC[C@@]2(C)C(CC[C@]3(C)C2CCC2C4C(C(C)C)CC[C@]4(C(=O)NCCN(CCNC(=N)N)CCNC(=N)N)CC[C@]23C)C1(C)C (single isomer, unassigned) (as salt: hydrochloride) [Compound 12b] : 198 to 200 °C

melting point reading for CC(=O)O[C@H]1CC[C@@]2(C)C(CC[C@]3(C)C2CCC2C4C(C(C)C)CC[C@]4(C(=O)NCCNC(=N)N)CC[C@]23C)C1(C)C (some centres unmarked) (as salt: hydrochloride) [Compound 10b] : 192 to 194 °C

melting point reading for CC(=O)O[C@H]1CC[C@@]2(C)C(CC[C@]3(C)C2CCC2C4C(C(C)C)CC[C@]4(C(=O)NCCN)CC[C@]23C)C1(C)C (some centres unmarked) : 120 to 122 °C

Continuing:
melting point reading for CC(=O)O[C@H]1CC[C@@]2(C)C(CC[C@]3(C)C2CCC2C4C(C(C)C)CC[C@]4(C(=O)NCCCN4CCN(CCCNC(=N)N)CC4)CC[C@]23C)C1(C)C (some centres unmarked) (as salt: trifluoroacetate) [Compound 13a] : 92 to 94 °C

melting point reading for CC(=O)O[C@H]1CC[C@@]2(C)C(CC[C@]3(C)C2CCC2C4C(C(C)C)CC[C@]4(C(=O)NCCCCN)CC[C@]23C)C1(C)C (some centres unmarked) : 104 to 106 °C
